We begin with a simple list: items and their reported relative viability.
Test system: NCI-H2228
Experiment: relative viability (nuclei count vs DMSO), 5 days (fraction); higher = more cells survive
Details: first compound 20 µM
Please give the numeric answer without any surrounding text.

Value lookup for relative viability; key = COCC1(CO)C(=O)C2CCN1CC2 (centres undefined) [PRIMA-1MET] + CC1(C)CCC(c2ccc(Cl)cc2)=C(CN2CCN(c3ccc(C(=O)NS(=O)(=O)c4ccc(N[C@H](CCN5CCOCC5)CSc5ccccc5)c(S(=O)(=O)C(F)(F)F)c4)cc3)CC2)C1 [Navitoclax] (partner 0.5 µM) 0.0661

New cases:
Value lookup for relative viability; key = COCC1(CO)C(=O)C2CCN1CC2 (centres undefined) [PRIMA-1MET] + Cc1cc(Nc2cc(N3CCN(C)CC3)nc(Sc3ccc(NC(=O)C4CC4)cc3)n2)n[nH]1 [Tozasertib] (partner 0.1 µM) 0.0992

Input COCC1(CO)C(=O)C2CCN1CC2 (centres undefined) [PRIMA-1MET] + COc1cc2c(Oc3ccc(NC(=O)C4(C(=O)Nc5ccc(F)cc5)CC4)cc3F)ccnc2cc1OCCCN1CCOCC1 [Foretinib] (partner 0.25 µM) 0.0309

Input COCC1(CO)C(=O)C2CCN1CC2 (centres undefined) [PRIMA-1MET] + CC(=O)Nc1cccc(-n2c(=O)n(C3CC3)c(=O)c3c(Nc4ccc(I)cc4F)n(C)c(=O)c(C)c32)c1 [Trametinib] (partner 0.02 µM) 0.0574

###

Test system: NCI-H23
Assay: relative viability (nuclei count vs DMSO), 5 days (fraction); higher = more cells survive
Conditions: first compound 0.253 µM
result.type: relative viability

Value lookup for relative viability; key = COc1nc(C)cnc1NS(=O)(=O)c1cccnc1-c1ccc(-c2nnco2)cc1 [Zibotentan] + NC(=O)Nc1cc(-c2cccc(F)c2)sc1C(=O)N[C@H]1CCCNC1 [AZD7762] (partner 0.2 µM) 0.238

Input O=c1cc(-c2cccc3c2Sc2ccccc2S3)oc(N2CCOCC2)c1 + Cc1nc(NC(=O)N2CCC[C@H]2C(N)=O)sc1-c1ccnc(C(C)(C)C(F)(F)F)c1 [Alpelisib] (partner 2 µM) 0.801

Input COc1nc(C)cnc1NS(=O)(=O)c1cccnc1-c1ccc(-c2nnco2)cc1 [Zibotentan] + N=C(N)NC(=N)NCCc1ccccc1 [Phenformin] (partner 250 µM) 0.762

Input O=c1cc(-c2cccc3c2Sc2ccccc2S3)oc(N2CCOCC2)c1 + N=C(N)NC(=N)NCCc1ccccc1 [Phenformin] (partner 250 µM) 0.96

Input COc1nc(C)cnc1NS(=O)(=O)c1cccnc1-c1ccc(-c2nnco2)cc1 [Zibotentan] + CC1(C)CCC(c2ccc(Cl)cc2)=C(CN2CCN(c3ccc(C(=O)NS(=O)(=O)c4ccc(N[C@H](CCN5CCOCC5)CSc5ccccc5)c(S(=O)(=O)C(F)(F)F)c4)cc3)CC2)C1 [Navitoclax] (partner 0.5 µM) 0.773

New cases:
Value lookup for relative viability; key = COc1nc(C)cnc1NS(=O)(=O)c1cccnc1-c1ccc(-c2nnco2)cc1 [Zibotentan] + CS(=O)(=O)CCNCc1ccc(-c2ccc3ncnc(Nc4ccc(OCc5cccc(F)c5)c(Cl)c4)c3c2)o1 [Lapatinib] (partner 2 µM) 0.987

###

System: NCI-H2170
Assay: relative viability (nuclei count vs DMSO), 5 days (fraction); higher = more cells survive
Conditions: first compound 1 µM
result.type: relative viability
Please give the numeric answer without any surrounding text.

Value lookup for relative viability; key = CCN(CC)CCCCNc1ncc2cc(-c3cc(OC)cc(OC)c3)c(NC(=O)NC(C)(C)C)nc2n1 + CS(=O)(=O)CCNCc1ccc(-c2ccc3ncnc(Nc4ccc(OCc5cccc(F)c5)c(Cl)c4)c3c2)o1 [Lapatinib] (partner 2 µM) 0.276

Input CCN(CC)CCCCNc1ncc2cc(-c3cc(OC)cc(OC)c3)c(NC(=O)NC(C)(C)C)nc2n1 + C[C@@H](Oc1cc(-c2cnn(C3CCNCC3)c2)cnc1N)c1c(Cl)ccc(F)c1Cl [Crizotinib] (partner 1 µM) 1.16

Input CCN(CC)CCCCNc1ncc2cc(-c3cc(OC)cc(OC)c3)c(NC(=O)NC(C)(C)C)nc2n1 + CC(=O)Nc1cccc(-n2c(=O)n(C3CC3)c(=O)c3c(Nc4ccc(I)cc4F)n(C)c(=O)c(C)c32)c1 [Trametinib] (partner 0.02 µM) 0.719

###

Test system: NCI-H1666
Assay: relative viability (nuclei count vs DMSO), 5 days (fraction); higher = more cells survive
Conditions: first compound 1 µM
We begin with a simple list: items and their reported relative viability.

In the examples that follow, each entry is paired with its recorded relative viability.
Value lookup for relative viability; key = O=c1cc(N2CCOCC2)oc2c(-c3cccc4c3sc3ccccc34)cccc12 + Cc1nc(NC(=O)N2CCC[C@H]2C(N)=O)sc1-c1ccnc(C(C)(C)C(F)(F)F)c1 [Alpelisib] (partner 2 µM) 0.832

Input CCN(CC)CCCCNc1ncc2cc(-c3cc(OC)cc(OC)c3)c(NC(=O)NC(C)(C)C)nc2n1 + CS(=O)(=O)N1CCN(Cc2cc3nc(-c4cccc5[nH]ncc45)nc(N4CCOCC4)c3s2)CC1 [Pictilisib] (partner 1 µM) 0.367

Input O=c1cc(N2CCOCC2)oc2c(-c3cccc4c3sc3ccccc34)cccc12 + CC(=O)c1c(C)c2cnc(Nc3ccc(N4CCNCC4)cn3)nc2n(C2CCCC2)c1=O [Palbociclib] (partner 0.5 µM) 0.643

Moving on to another molecule below.
Value lookup for relative viability; key = O=c1cc(N2CCOCC2)oc2c(-c3cccc4c3sc3ccccc34)cccc12 + C[C@@H](Oc1cc(-c2cnn(C3CCNCC3)c2)cnc1N)c1c(Cl)ccc(F)c1Cl [Crizotinib] (partner 1 µM) 0.812

###

Tested on: NCI-H1648
Assay: relative viability (nuclei count vs DMSO), 5 days (fraction); higher = more cells survive
Details: first compound 0.253 µM
We begin with a simple list: items and their reported relative viability.
Please give the numeric answer without any surrounding text.

Value lookup for relative viability; key = COc1nc(C)cnc1NS(=O)(=O)c1cccnc1-c1ccc(-c2nnco2)cc1 [Zibotentan] + CC(=O)Nc1cccc(-n2c(=O)n(C3CC3)c(=O)c3c(Nc4ccc(I)cc4F)n(C)c(=O)c(C)c32)c1 [Trametinib] (partner 0.02 µM) 0.529

Moving on to another compound below.
Value lookup for relative viability; key = COc1nc(C)cnc1NS(=O)(=O)c1cccnc1-c1ccc(-c2nnco2)cc1 [Zibotentan] + NC(=O)Nc1cc(-c2cccc(F)c2)sc1C(=O)N[C@H]1CCCNC1 [AZD7762] (partner 0.2 µM) 0.596

###

Tested on: EPLC-272H
Experiment: relative viability (nuclei count vs DMSO), 5 days (fraction); higher = more cells survive
Settings: first compound 1 µM
result.type: relative viability
Please give the numeric answer without any surrounding text.

In the examples that follow, each entry is paired with its recorded relative viability.
What is its relative viability for EPLC-272H? Entry: O=c1cc(N2CCOCC2)oc2c(-c3cccc4c3sc3ccccc34)cccc12 + Cc1cc(Nc2cc(N3CCN(C)CC3)nc(Sc3ccc(NC(=O)C4CC4)cc3)n2)n[nH]1 [Tozasertib] (partner 0.1 µM) 0.253

Input CCN(CC)CCCCNc1ncc2cc(-c3cc(OC)cc(OC)c3)c(NC(=O)NC(C)(C)C)nc2n1 + COc1cccc2cc(-c3nc([C@H]4CC[C@H](C(=O)O)CC4)n4ncnc(N)c34)[nH]c12 [OSI-027] (partner 0.5 µM) 0.301

Input CCN(CC)CCCCNc1ncc2cc(-c3cc(OC)cc(OC)c3)c(NC(=O)NC(C)(C)C)nc2n1 + Nc1nc2[nH]cc(CCc3ccc(C(=O)N[C@@H](CCC(=O)O)C(=O)O)cc3)c2c(=O)[nH]1 [Pemetrexed] (partner 0.2 µM) 0.26

Moving on to another compound below.
What is its relative viability for EPLC-272H? Entry: CCN(CC)CCCCNc1ncc2cc(-c3cc(OC)cc(OC)c3)c(NC(=O)NC(C)(C)C)nc2n1 + C[C@]1(O)C[C@@H](c2nc(-c3ccc4ccc(-c5ccccc5)nc4c3)c3c(N)nccn32)C1 [Linsitinib] (partner 1 µM) 1.17

###

Test system: EKVX
Assay: relative viability (nuclei count vs DMSO), 5 days (fraction); higher = more cells survive
Details: first compound 0.6325 µM
We begin with a simple list: items and their reported relative viability.

In the examples that follow, each entry is paired with its recorded relative viability.
Value lookup for relative viability; key = COCC1(CO)C(=O)C2CCN1CC2 (centres undefined) [PRIMA-1MET] + Cc1nc(NC(=O)N2CCC[C@H]2C(N)=O)sc1-c1ccnc(C(C)(C)C(F)(F)F)c1 [Alpelisib] (partner 2 µM) 0.966

Input COCC1(CO)C(=O)C2CCN1CC2 (centres undefined) [PRIMA-1MET] + CC1(C)CCC(c2ccc(Cl)cc2)=C(CN2CCN(c3ccc(C(=O)NS(=O)(=O)c4ccc(N[C@H](CCN5CCOCC5)CSc5ccccc5)c(S(=O)(=O)C(F)(F)F)c4)cc3)CC2)C1 [Navitoclax] (partner 0.5 µM) 0.621

Input COCC1(CO)C(=O)C2CCN1CC2 (centres undefined) [PRIMA-1MET] + COc1cccc2cc(-c3nc([C@H]4CC[C@H](C(=O)O)CC4)n4ncnc(N)c34)[nH]c12 [OSI-027] (partner 0.5 µM) 0.723

Moving on to another compound below.
Value lookup for relative viability; key = COCC1(CO)C(=O)C2CCN1CC2 (centres undefined) [PRIMA-1MET] + CS(=O)(=O)CCNCc1ccc(-c2ccc3ncnc(Nc4ccc(OCc5cccc(F)c5)c(Cl)c4)c3c2)o1 [Lapatinib] (partner 2 µM) 0.202
